These measurements were taken from patent US20240343814A1.

Biological target: Recombinant human his-tagged IGF 1R extracellular domain protein (human) (UniProt P08069)
Assay: SPR, captured IgG, IGF-1R ECD-his analyte, dissociation pH 6
RECORDED_METRIC: Kd (nM)
I only need the number, in nM, no unit after it.

Solved cases (4 shown):
{"BINDER": "VRDN-02531 (antibody, V domains shown) VH: EVQLVQSGGGLVKPGGSLRLSCAASGFTFSSFAMHWVRQAPGKGLEWISVIDTRGATYYADSVKGRFTISRDNAKNSLYLQMNSLRAEDTAVYYCARLGNFYYGMDVWGQGTTVTVSS VL: EIVLTQSPGTLSVSPGERATLSCRASHSIGSSLHWYQQKPGQAPRLLIKYASQSLSGIPDRFSGSGSGTDFTLTISRLEPEDFAVYYCHQSSRLPHTFGQGTKVEIK", "EXPERIMENTAL_RESULT": 0.0319}
{"BINDER": "VRDN-02520 (antibody, V domains shown) VH: EVQLVQSGGGLVKPGGSLRLSCAASGFTFSSFAMHWVRQAPGKGLEWISVIDTRGATYYADSVKGRFTISRDNAKNSLYLQMNSLRAEDTAVYYCARLGHFYYGMDVWGQGTTVTVSS VL: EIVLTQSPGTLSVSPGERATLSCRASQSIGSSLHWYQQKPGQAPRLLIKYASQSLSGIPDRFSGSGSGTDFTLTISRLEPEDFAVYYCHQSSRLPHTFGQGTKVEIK", "EXPERIMENTAL_RESULT": 0.0242}
{"BINDER": "VRDN-02543 (antibody, V domains shown) VH: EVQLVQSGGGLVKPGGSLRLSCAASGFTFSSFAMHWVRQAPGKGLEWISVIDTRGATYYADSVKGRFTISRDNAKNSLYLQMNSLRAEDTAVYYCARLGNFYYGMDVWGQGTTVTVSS VL: EIVLTQSPGTLSVSPGERATLSCRASQSIGSSLHWYQQKPGQAPRLLIKYASQHLSGIPDRFSGSGSGTDFTLTISRLEPEDFAVYYCHQSSRLPHTFGQGTKVEIK", "EXPERIMENTAL_RESULT": 0.025}
{"BINDER": "VRDN-02560 (antibody, V domains shown) VH: EVQLVQSGGGLVKPGGSLRLSCAASGFTFSSFHMHWVRQAPGKGLEWISVIDTRGATYYADSVKGRFTISRDNAKNSLYLQMNSLRAEDTAVYYCARLGNFYYHMDVWGQGTTVTVSS VL: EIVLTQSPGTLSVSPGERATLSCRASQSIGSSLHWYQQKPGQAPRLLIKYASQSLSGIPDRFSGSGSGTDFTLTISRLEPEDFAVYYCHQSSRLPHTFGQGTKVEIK", "EXPERIMENTAL_RESULT": 0.996}

**Query** Note down Kd recorded for VRDN-02567 (antibody, V domains shown) VH: EVQLVQSGGGLVKPGGSLRLSCAASGFTFSSFAMHWVRQAPGKGLEWISVIDTRGATYYADSVKGRFTISRDNAKNSLYLQMNSLRAEDTAVYYCARLGNFYYHHDVWGQGTTVTVSS VL: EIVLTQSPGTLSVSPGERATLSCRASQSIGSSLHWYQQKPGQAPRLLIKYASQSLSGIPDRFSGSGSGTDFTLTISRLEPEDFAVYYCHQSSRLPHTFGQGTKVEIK
**Result** 5.41
